Consider the following compounds; for each one, report its EC50.
- Tested on: HCT116
- Test protocol: Proliferation inhibition, CellTiter-Glo
- Format: cell-based, human
- Condition summary: Table D-1; 3 days; read-out: HCT116 Prolif. EC50

In plain terms, Cc1c(F)cccc1S(=O)(=O)Nc1ccc(F)c(Nc2ncnc3cnc(-n4cc(C(=O)N(C)Cc5ccncc5)c5ccccc54)nc23)c1F has a documented EC50 of < 300 nM

In plain terms, O=S(=O)(Nc1ccc(F)c(Nc2ncnc3cnc(-n4cnc5c(N6CCC7(CCCO7)CC6)cccc54)nc23)c1F)c1cccc(Cl)c1Cl has a documented EC50 of 300 to 3000 nM

Next:
In plain terms, COc1ccc(S(=O)(=O)Nc2ccc(F)c(Nc3ncnc4cnc(-n5cnc6c(N)cccc65)nc34)c2F)c(C)c1Cl has a documented EC50 of 300 to 3000 nM

---

Consider the following compounds; for each one, report its pIC50.
- System: HCT116 pERK
- Test protocol: Phospho-ERK inhibition, AlphaLISA SureFire Ultra p-ERK 1/2
- Assay type: cell-based, human
- Condition summary: Table 2; 1 h treatment
pIC50: −log10 of the molar value.

HCT116 pERK assay, compound COc1ccc(S(=O)(=O)Nc2ccc(F)c(Nc3ncnc4cnc(SC)nc34)c2F)c(OC)c1 [Example 19] , recorded pIC50 = 4.52 to 5.00

HCT116 pERK assay, compound CSc1ncc2ncnc(Nc3c(F)ccc(NS(=O)(=O)c4ccccc4C#N)c3F)c2n1 [Example 5] , recorded pIC50 = 4.52 to 5.00

Note: attention shifts to another entry.
HCT116 pERK assay, compound COc1ccc(S(=O)(=O)Nc2ccc(F)c(Nc3ncnc4cnc(SC)nc34)c2F)c(C(F)(F)F)c1 [Example 14] , recorded pIC50 = 5.00 to 6.00

---

- Target or system: CRAF (Homo sapiens, UniProt P04049)
- Sequence (P04049 whole entry): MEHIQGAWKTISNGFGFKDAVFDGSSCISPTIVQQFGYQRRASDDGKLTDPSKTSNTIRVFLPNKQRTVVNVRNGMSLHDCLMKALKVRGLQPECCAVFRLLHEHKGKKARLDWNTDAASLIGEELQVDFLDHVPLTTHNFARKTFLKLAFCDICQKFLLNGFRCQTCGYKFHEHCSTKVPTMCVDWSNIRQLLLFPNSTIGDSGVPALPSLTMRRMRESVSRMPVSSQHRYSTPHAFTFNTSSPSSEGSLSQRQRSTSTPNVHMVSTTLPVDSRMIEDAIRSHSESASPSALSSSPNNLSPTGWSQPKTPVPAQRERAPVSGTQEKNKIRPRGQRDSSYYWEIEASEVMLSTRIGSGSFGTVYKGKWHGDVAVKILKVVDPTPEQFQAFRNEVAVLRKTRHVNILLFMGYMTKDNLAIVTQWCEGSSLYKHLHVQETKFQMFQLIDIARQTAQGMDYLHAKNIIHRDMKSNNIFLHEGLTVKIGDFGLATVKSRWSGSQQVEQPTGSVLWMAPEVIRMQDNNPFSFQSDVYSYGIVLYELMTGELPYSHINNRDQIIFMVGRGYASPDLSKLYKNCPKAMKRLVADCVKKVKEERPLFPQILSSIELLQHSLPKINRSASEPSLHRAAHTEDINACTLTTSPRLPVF
- Test protocol: CRAF kinase activity assay (ADP-Glo)
- Format: biochemical
- Condition summary: CRAF biochemical kinase assay
Readout: IC50

In plain terms, O=S(=O)(Nc1cc(F)c(F)c(Nc2ncnc3cnc(-n4nnc5ccccc54)nc23)c1F)c1cccc(Cl)c1Cl has a documented IC50 of < 10 nM

Note: attention shifts to another entry.
In plain terms, O=S(=O)(Nc1cc(F)c(F)c(Nc2ncnc3cnc(-n4cnc5ccccc54)nc23)c1F)c1cccc(Cl)c1Cl has a documented IC50 of < 10 nM

---

Consider the following compounds; for each one, report its SW480 (Ymin %).
- System: SW480 pERK
- Test protocol: Phospho-ERK inhibition, AlphaLISA SureFire Ultra p-ERK 1/2
- Assay type: cell-based, human
- Condition summary: Table 3; lowest value of the pERK IC50 curve
- Procedure: All cancer cell lines (A375, A101D, A2058, RKO, HT29 SK-MEL 30, IPC298, HepG2, HCT-116, Lovo, SW620, SW480, NCI-H358, NCI-H2122, Calu-6, NCIH2087, NCIH1755, NCIH1666 and Mewo) were obtained from ATCC and cultured in RPMI-1640 medium (Gibco) supplemented with 5% heat inactivated fetal bovine serum (FBS, Wisent) at 37° C. under 5% CO2. Cells were maintained in T175 flasks (Greiner). […] The effect of each compound dilution on the pERK signal was expressed in % inhibition and calculated as follows. […]
Give bare numbers, in %.

In plain terms, COc1ccc(S(=O)(=O)Nc2ccc(F)c(Nc3ncnc4cnc(-n5cnc6ccccc65)nc34)c2F)cc1 has a documented SW480 (Ymin %) of 10

Report SW480 (Ymin %) for each item below.
1. COc1ccc(S(=O)(=O)Nc2ccc(F)c(Nc3ncnc4cnc(-n5cnc(C)c5C)nc34)c2F)c(F)c1
2. COc1ccc(S(=O)(=O)Nc2ccc(F)c(Nc3ncnc4cnc(N5CC(F)C5)nc34)c2F)cc1
3. O=S(=O)(Nc1ccc(F)c(Nc2ncnc3cnc(-n4cnc5ccccc54)nc23)c1F)N1CCC(CCl)C1 (stereo not drawn)
4. Cc1c(F)cccc1S(=O)(=O)Nc1ccc(F)c(Nc2ncnc3cnc(-n4cnc5ccccc54)nc23)c1F
5. COc1ccc(S(=O)(=O)Nc2ccc(F)c(Nc3ncnc4cnc(N5CCC(O)C5)nc34)c2F)cc1 (stereo not drawn) [Example 42]
6. COc1ccc(S(=O)(=O)Nc2ccc(F)c(Nc3ncnc4cnc(N5CCC5)nc34)c2F)cc1

output:
−4
−1
−6
−2
11
0

Report SW480 (Ymin %) for each item below.
1. COCC1CCN(S(=O)(=O)Nc2ccc(F)c(Nc3ncnc4cnc(-n5cnc6ccccc65)nc34)c2F)C1 (stereo not drawn)
2. COc1ccc(S(=O)(=O)Nc2ccc(F)c(Nc3ncnc4cnc(-n5ccnc5)nc34)c2F)cc1
3. CO[C@@H]1CCN(S(=O)(=O)Nc2ccc(F)c(Nc3ncnc4cnc(N5CC[C@H](F)C5)nc34)c2F)C1
4. O=S(=O)(Nc1ccc(F)c(Nc2ncnc3cnc(-n4cnc5ccccc54)nc23)c1F)N1CCC(OC(F)F)C1 (stereo not drawn)

output:
1. 1
2. 14
3. 15
4. 10

Report SW480 (Ymin %) for each item below.
1. COc1ccc(S(=O)(=O)Nc2ccc(F)c(Nc3ncnc4cnc(N5CC[C@H](F)C5)nc34)c2F)c(C)c1
2. CO[C@@H]1CCN(S(=O)(=O)Nc2ccc(F)c(Nc3ncnc4cnc(-n5nnc6ccccc65)nc34)c2F)C1
3. COc1ccc(S(=O)(=O)Nc2ccc(F)c(Nc3ncnc4cnc(-n5cnc6ccccc65)nc34)c2F)c(C)c1
4. Nc1cccc2c1ncn2-c1ncc2ncnc(Nc3c(F)ccc(NS(=O)(=O)c4cccc(Cl)c4Cl)c3F)c2n1

output:
1. −2
2. 1
3. −2
4. −2

---

Consider the following compounds; for each one, report its IC50.
- Target or system: CRAF (Homo sapiens, UniProt P04049)
- Test protocol: CRAF kinase activity assay (ADP-Glo)
- Assay type: biochemical
- Condition summary: Table 3

In plain terms, Cc1c(F)cccc1S(=O)(=O)Nc1ccc(F)c(Nc2ncnc3cnc(-n4cc(C(=O)N(C)CCO)c5ccccc54)nc23)c1F [Example 101] has a documented IC50 of < 10 nM

In plain terms, O=S(=O)(CC1CCOCC1)c1cn(-c2ncc3ncnc(Nc4c(F)ccc(NS(=O)(=O)c5cccc(Cl)c5Cl)c4F)c3n2)c2ccccc12 [Example 144] has a documented IC50 of 10 to 50 nM

In plain terms, O=S(=O)(Nc1ccc(F)c(Nc2ncnc3cnc(-n4cnc5c(N6CC(CF)C6)cccc54)nc23)c1F)c1cccc(Cl)c1Cl [Example 140] has a documented IC50 of 10 to 50 nM

In plain terms, Cc1c(F)cccc1S(=O)(=O)Nc1ccc(F)c(Nc2ncnc3cnc(-n4nc(C(=O)N(C)Cc5ccncc5)c5ccccc54)nc23)c1F [Example 106] has a documented IC50 of 10 to 50 nM

In plain terms, CCC1(O)CCN(c2cccc3c2ncn3-c2ncc3ncnc(Nc4c(F)ccc(NS(=O)(=O)c5ccc(F)c(F)c5C)c4F)c3n2)CC1 [Example 155] has a documented IC50 of > 50 nM

In plain terms, O=S(=O)(Nc1ccc(F)c(Nc2ncnc3cnc(-n4cnc5ccccc54)nc23)c1F)c1cccc(Cl)c1Cl [Example 81] has a documented IC50 of < 10 nM

In plain terms, O=S(=O)(Nc1ccc(F)c(Nc2ncnc3cnc(-n4cnc5ccccc54)nc23)c1F)c1ccc(Cl)cc1Cl [Example 63] has a documented IC50 of < 10 nM

In plain terms, CCc1ccccc1S(=O)(=O)Nc1ccc(F)c(Nc2ncnc3cnc(-n4cnc5ccccc54)nc23)c1F [Example 148] has a documented IC50 of 10 to 50 nM

Report IC50 for each item below.
1. CCC1(O)CCN(c2cccc3c2nnn3-c2ncc3ncnc(Nc4c(F)ccc(NS(=O)(=O)c5cccc(Cl)c5Cl)c4F)c3n2)CC1 [Example 136]
2. Cc1ncn(-c2ncc3ncnc(Nc4c(F)ccc(NS(=O)(=O)c5ccc(Cl)cc5Cl)c4F)c3n2)c1C [Example 62]
3. Cc1c(F)cccc1S(=O)(=O)Nc1ccc(F)c(Nc2ncnc3cnc(-n4cc(S(=O)(=O)N(C)Cc5ccncc5)c5ccccc54)nc23)c1F [Example 113]
4. COc1ccc(S(=O)(=O)Nc2ccc(F)c(Nc3ncnc4cnc(-n5cnc6ccccc65)nc34)c2F)c(C)c1F [Example 116]

output:
1. < 10 nM
2. 10 to 50 nM
3. 10 to 50 nM
4. > 50 nM

In plain terms, Cc1c(F)cccc1S(=O)(=O)Nc1ccc(F)c(Nc2ncnc3cnc(-n4nc(C(=O)N5CCOCC5)c5ccccc54)nc23)c1F [Example 110] has a documented IC50 of 10 to 50 nM

---

- Test system: HCT116 pERK
- Test protocol: Phospho-ERK inhibition, AlphaLISA SureFire Ultra p-ERK 1/2
- Type: cell-based, human
- Condition summary: Table 2; 1 h treatment
- Protocol: All cancer cell lines (A375, A101D, A2058, RKO, HT29 SK-MEL 30, IPC298, HepG2, HCT-116, Lovo, SW620, SW480, NCI-H358, NCI-H2122, Calu-6, NCIH2087, NCIH1755, NCIH1666 and Mewo) were obtained from ATCC and cultured in RPMI-1640 medium (Gibco) supplemented with 5% heat inactivated fetal bovine serum (FBS, Wisent) at 37° C. under 5% CO2. Cells were maintained in T175 flasks (Greiner). […] The effect of each compound dilution on the pERK signal was expressed in % inhibition and calculated as follows. […]
pIC50: −log10 of the molar value.
Readout: pIC50

Use the examples below as a reference point.
In plain terms, COC1CN(S(=O)(=O)Nc2ccc(F)c(Nc3ncnc4cnc(SC)nc34)c2F)C1 has a documented pIC50 of 4.52 to 5.00

In plain terms, CSc1ncc2ncnc(Nc3c(F)ccc(NS(=O)(=O)c4ccc5c(c4)OCO5)c3F)c2n1 has a documented pIC50 of 4.52 to 5.00

In plain terms, CSc1ncc2ncnc(Nc3c(F)ccc(NS(=O)(=O)c4ccc(C)cc4C)c3F)c2n1 has a documented pIC50 of 5.00 to 6.00

In plain terms, CSc1ncc2ncnc(Nc3c(F)ccc(NS(=O)(=O)N4CCCC4)c3F)c2n1 has a documented pIC50 of 4.52 to 5.00

In plain terms, CSc1ncc2ncnc(Nc3c(F)ccc(NS(=O)(=O)c4ccc(C)cc4)c3F)c2n1 has a documented pIC50 of 4.52 to 5.00

Report pIC50 for each item below.
1. COc1ccc(S(=O)(=O)Nc2ccc(F)c(Nc3ncnc4cnc(SC)nc34)c2F)c(F)c1
2. COc1ccc(S(=O)(=O)Nc2ccc(F)c(Nc3ncnc4cnc(SC)nc34)c2F)c(C#N)c1
3. CSc1ncc2ncnc(Nc3c(F)ccc(NS(=O)(=O)c4ccc(Cl)cc4Cl)c3F)c2n1
4. COc1ccc(S(=O)(=O)Nc2ccc(F)c(Nc3ncnc4cnc(SC)nc34)c2F)c(C)c1Cl
5. CSc1ncc2ncnc(Nc3c(F)ccc(NS(=O)(=O)c4ccc(F)cc4C#N)c3F)c2n1

output:
["5.00 to 6.00", "4.52 to 5.00", "4.52 to 5.00", "5.00 to 6.00", "4.52 to 5.00"]
